Assay: yeast display, Sf9 membrane polyspecificity reagent, FACS + sequencing; frameworks hold sequencing errors
Experimental endpoint: polyreactivity (PSR sort gate)

Here are 4 sequences together with their reported answers.
According to the records, this sequence `QVQLVESGGGLVQAGGSLRLSCAASGIIFHYYAMGWYRQAPVKERELVAVITSGGSTNYADSVKGRFTISRDNAKNTVYLQMNSLKPEDTAVYYCAADPIRDSWWQYFQDGREYDYWGQGTQVTVSS` displays polyreactivity (PSR sort gate) of low polyreactivity

According to the records, this sequence `QVKLVETGGGLVQAGGSLRLSCAASGSTFEHYAMGWYRQAPGKERELVAAISYTGGNTYYAYSVKGRFTISRDNAKNTVYLQMNSLKPEDTAVYYCAAAPLYYHRRGYYYWGQGTQVTVSS` displays polyreactivity (PSR sort gate) of high polyreactivity

According to the records, this sequence `QVQLVESGGGLVQAGGSLRLSCAASGRIFYLYAMGWYRQAPGKERELVAGITSGGRTNYADSVKGRFTISRDNAKNTVYLQMNSLKPEDTAVYYCAAFYWGRYTGYYWGQGTQVTVSS` displays polyreactivity (PSR sort gate) of high polyreactivity

According to the records, this sequence `QVQLVESGGGLVQAGGSLRLSCAASGIIFYHYAMGWYRQAPGKEREFVAAITWDGGNTYYADSVKGRFTISRDNAKNTVYLQMNSLKPEDTAVYYCNTDRGPVKVSPLYESWGQGTQVTVSS` displays polyreactivity (PSR sort gate) of low polyreactivity

From here, focus on the item given below.
According to the records, this sequence `QVQLVESGGGLVQAGGSLRLSCAASGSTFTSNAMGWYRQAPGKERELVASISGSGGRTYYADSVKGRFTISRDNAKNTVYLQMNSLKPEDTAVYYCNAESRNLYSTQFDYLGQGTQVTVSS` displays polyreactivity (PSR sort gate) of low polyreactivity

----------
Test: yeast display, Sf9 membrane polyspecificity reagent, FACS + sequencing; frameworks hold sequencing errors
Experimental endpoint: polyreactivity (PSR sort gate)

According to the records, this sequence `QVQLVESGGGLVQAGGSLRLSCAASGSTFRIYAMGWYRQAPGKERELVAAISKRGGSTYYADSVKGRFTISRDNAKNTVYLQMNSLKPEDTAVYYCAKPPYSQYEFDYWGQGTQVTVSS` displays polyreactivity (PSR sort gate) of high polyreactivity

According to the records, this sequence `QVQLVESGGGLVQAGGSLRLSCAASGFIFSHYAMGWYRQSPGKEREFVATSSKRGGSTTYADSVKGRFTISRDNAKNTVYLQMNSLKPEDTAVYYCAADRYRSFERYDYWGQGTQVTVSS` displays polyreactivity (PSR sort gate) of high polyreactivity

According to the records, this sequence `QVHLVESGGGLVQAGGSLRLSCAATGRTLTCNARGWYRQAPGKERELVPAISRSGGGSTYYADSVKGRFTISRDTAKNTVYIQMISLKPEDTAVYYCAARYRVHYYWYPMGYWGQGTQVTVSS` displays polyreactivity (PSR sort gate) of high polyreactivity

According to the records, this sequence `QVQLVESGGGLVQAGGSLRLSCAASGIIFSPYAMGWYRQAPGKERELVAAINFSTGRTYYADSVKGRFTISRDNAKNTVYLQMNSLKPEDTAVYYCAAGKYPYVFRGGYDYWGQGTQVTVSS` displays polyreactivity (PSR sort gate) of low polyreactivity

According to the records, this sequence `QLQLVESGGGLVQAGGRLRLSCAASGFIFHINARGWYRQAPGKEREFVAAISRSVGSTSYADTVKGRFTNSRDNAKNTVYLLMNSLKPEDTAVYYCNAALRKRKGPYDYWGQGTQVTVSS` displays polyreactivity (PSR sort gate) of high polyreactivity

According to the records, this sequence `QVQLVESAGGLVQAGGSLRLSCAASGIIFDTNAMGCYRQAPGKERELVASISKRGGSTYYADSVKGRFTISRDNAKNTVYLQMNSLKPEDTAVYYCNALRRRQYHDDYWGQGTQVTVSS` displays polyreactivity (PSR sort gate) of high polyreactivity

According to the records, this sequence `QVQLVESGGGLVQAGGSLRLSCAASGSIFGVYAMGRYIQAPRKERELVASISRGGSTNYADSVKGRFTISRDNAKNTVYLQMKSLKPEDTAVYYCASDGVYQGWTWLYGLRYNYWGQGTQVTVSS` displays polyreactivity (PSR sort gate) of low polyreactivity

According to the records, this sequence `QVQLVESGGGLVQAGGSLRLSCAASGFIFRAYAMGWYRQAPGKERELVAAITKRSGTTYYADSVKGRFTISRDNAKNTVYLQMHSLKPEDTAVYYCAARYYRDYRWYTYAYDYWGQGTQVTVSS` displays polyreactivity (PSR sort gate) of high polyreactivity

Please give polyreactivity (PSR sort gate), item by item, for the list that follows.
1. QVQLVESGGGLVQAGGSLRLSCAASGTFVTYMGLYRQAPGKERELVAAIRNGGSTNYADSVKGRFTISRDNAKNTVYLQMNSLKPEDTAVDYFTADYTYWNGWFATRDYWGQGTQVTVSS
2. QVQLVESGGGLLQAGGILRLSCAASGRIFFANAMGWYRQAPGKERELVASITRRSGGTYYADSVKGRFTISRDNAKNTVYLQMNSLKPEDTAVYYCAARYTFPKALYYYWGQGTQVTVSS
3. QVQLVESGGGLVQAGGSLRLSCAASGSIFGYYAMGWYRQEPGKERELVAAITRSGGSTYYADSVKGRFTISRDNAKNPVYLQMNSLKPEDTAVYYCNAVRYAVRLPAFPGYDYWGQGTQVTVSS
4. QVQLVESGGGLVQAGGSLRLSCAASGRTFYVYAMGWYRQAPGKERELVAAISQDDGGTYYADSVKGRFTISRDNAKNTVYLQMNSLKPEDTAVYYCAAKEWRYGYDYGYWGQGTQVTLSS
5. QVQLVESGGGLVQAGGSLRLSCAASGRIFYANAMGWYRQAPGKERELVAGISSGGITNYADSVKGRFTISRDNAKITVYLQMNSLKPEDTAVYYCAVESWNRWRNRNDYWGQGTQVTVSS
6. QVQHVESGGGLVQAGGSLRLSCAASGRIFEIYAMGWYRPAPGKERYLVAAISWRGVSTYYADSVKGRFTISRDYAKNTVYLQMNSLKPEDTAVFYCNNDVDYFWYVEYDYWGQGTQVTVSS
7. QVQLVESGGGLVQAGGSLRLSCAASGSTFWSNPMGWYRQAPGKERELVAAISISDGNTYYADSVKGRFTISRDNAKNTVYLQMNSLKPDDTAVYYCATVGSEDGDPGFDYWGQGTQVTVSS

low polyreactivity
high polyreactivity
high polyreactivity
low polyreactivity
low polyreactivity
low polyreactivity
low polyreactivity

Please give polyreactivity (PSR sort gate), item by item, for the list that follows.
1. QVQLVESGGGLVQAGGSLRLSCAASGFTFGSYAMGWYRQATGKERELVAVITRSGRTNYADSVKGRFTITRDNAKNTVFLQMNSMKPEDTAVYYCNADDVDDEVSPDLTEMDNWGLGTQVTVSS
2. QVQLVESGGGLVQPGGSLRLSCAASGSTFSWNAMGWYRQAPGKERELVASITWGGGSTYYADSVKGRFTISRDTAKNTVYLQMNSLKPEDTAVYYSAAKYGTSKYSRYYYWGQGTQVTVSS
3. QVQLVESGGGLVQAGGSLRLSCAASGRIFYGNVMGWYRQAPGKERELVAVITSGGNTNYADSVKGRFTISRDNAKNTVYLQMNSLKPEDTAVYYCATAVVAGVWGYDYWGQGTQVSVSS
4. QVQLVESGGGLVQAGGSLRLSCAASGITFYHYAMGWYRQAPGKERELVAAISRSGGSTSYADSVMGRFTISRDNAKNTVYLQMNSLKPEDTAVYYCAARLVRESEPLGYWGQGTQVTVSS

["low polyreactivity", "high polyreactivity", "low polyreactivity", "high polyreactivity"]

Please give polyreactivity (PSR sort gate), item by item, for the list that follows.
1. QVQLVESGGGLVQAGGSLRLSCAASGSLFEINAMGWYRPAPGKERELVAAITGSGGSTHYADSVKGRFTISRDNAKNTVYLQMNSLKPEDTAVYYCSAVPRYQYGYWGQGTQVTVSS
2. QVQLVESGGGLVQAGGSLRLSCAASGNIFRYYAMGWYRQSPGKERELVAAITRSGGSTYADSVKGRFTISRDNAKNTVYLQMNSLKPEDTAVYYCAAVGYRYFTIYDYWGQGTQVTVSS

["low polyreactivity", "low polyreactivity"]

----------
Test: yeast display, Sf9 membrane polyspecificity reagent, FACS + sequencing; frameworks hold sequencing errors
Experimental endpoint: polyreactivity (PSR sort gate)

Here are 4 sequences together with their reported answers.
According to the records, this sequence `QVQLVKSGGGLVQAGGSLRVSCAATGRIYTDNAMGWYRQATGKERELVAGMSSSGGRTYYADSVKGRFTISRDNAKNSVFFQMNSLLTEATAVYYCAAANSRRDGRYYWGQGTQVSVSS` displays polyreactivity (PSR sort gate) of high polyreactivity

According to the records, this sequence `QVQLVESGGGLVQAGGSLRLSCAASGRIFQRYTMGWYRQAPGKEREFVAAITYSGGSTHYADSVKGRFTISRDNAKNTVYLQMNSLKPEDTAVYYCNADRYYGRGYGYWGQGTQVTVSS` displays polyreactivity (PSR sort gate) of low polyreactivity

According to the records, this sequence `QVQLVESGGGLVQAGGSLRLSCAASGNTFYRNAMGWYRQAPGKERELVAAISTTGVSTYYADSVKGRFTISRDNAKNTVYVQMTSLKPEDTAVYYCAAEIIGYHTIYDYWGQGTQVTVSS` displays polyreactivity (PSR sort gate) of low polyreactivity

According to the records, this sequence `QVQLVESGGGLVQAGGSLRLSCAASGFTFSWYAMGWYRQAPGKEMELVAAIDDGGSTYYADSVKGRFTISRDNAKNTVYLQMNSLKPEDTAVYYCNARGYGTLNVRRERMDYWGQGTQVTVSS` displays polyreactivity (PSR sort gate) of high polyreactivity

From here, focus on the item given below.
According to the records, this sequence `QVQLVESGGGLVQAGGSLRLSCAASGSTFGGYAMGWYRQAPGKEWELVAAISWNGDSTYYADSVKGRFTISRDNAKNTVYLQMNSLKPEDTAVYYCAAPYSGPYRSYEYYWGQGTQVTVSS` displays polyreactivity (PSR sort gate) of low polyreactivity

Taken from the nanobody polyreactivity screen of Harvey et al. (2022).
